Consider the following compounds and their measured %Inh readings.
Test system: BRSK2
CONDITION_CONTEXT: concentration: 1 μM, replicates: in singlicate; n = 1;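 note: KINOMEscan kinase panel screen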
The reply should be a number in %, with the unit left off.

Consider the worked cases shown below.
{"COMPOUND": "COc1ccc(-n2cnc3c(N)ncnc32)cc1", "STUDY_TARGET": "BRSK2", "PARAMETER": "%Inh", "NUMBER": 14}
{"COMPOUND": "COc1cc(Nc2nccc(N3CCC(NC(=O)C4COc5ccccc5O4)C3)n2)cc(OC)c1OC (centres unmarked)", "STUDY_TARGET": "BRSK2", "PARAMETER": "%Inh", "NUMBER": 0}

### Prompt Write down %Inh measured for item `CCCNC(=O)Nc1ccc(Oc2ncnc3ccn(C)c23)cc1`
### Response 8

### Prompt Write down %Inh measured for item `Nc1nc(N)c2nc(-c3ccccc3)[nH]c2n1`
### Response 0

### Prompt Write down %Inh measured for item `COc1cc(OC)cc(-c2cc3cnc(N)nc3nc2NC(=O)NC(C)(C)C)c1`
### Response 6

###

System: PRKCD
CONDITION_CONTEXT: concentration: 1 μM, replicates: in singlicate; n = 1
PARAMETER: %Inh (%)
The reply should be a number in %, with the unit left off.

### Prompt Write down %Inh measured for item `COc1cccc(C2=C(Nc3cccc(C(=O)O)c3)C(=O)NC2=O)c1`
### Response 29

### Prompt Write down %Inh measured for item `COc1cc2ncn(-c3cc(OCc4ccncc4Br)c(C(N)=O)s3)c2cc1OC`
### Response 7

###

Tested on: MST1
Construct: gene STK4
CONDITION_CONTEXT: concentration: 1 μM, replicates: in singlicate; n = 1
PARAMETER: %Inh
State the value, then name its unit.

Consider the worked cases shown below.
{"COMPOUND": "Cl.NS(=O)(=O)c1cccc(Nc2cc(-c3ccc(F)cc3)n[nH]2)c1 [GW824645]", "%Inh": "29%"}
{"COMPOUND": "COc1ccc(Nc2nccc(N3CCC(NS(=O)(=O)c4ccc(NC(C)=O)cc4)C3)n2)cc1 (stereo not drawn) [GSK1379729]", "%Inh": "7%"}
{"COMPOUND": "Nc1nc(N)c2nc(-c3ccccc3)[nH]c2n1 [SKF-12778]", "%Inh": "4%"}
{"COMPOUND": "Fc1cccc(CSc2nnc(-c3ccc4c(c3)CCO4)o2)c1", "%Inh": "3%"}

### Prompt Write down %Inh measured for item `Cc1ccc(-c2ccc3c(ccc4sc5c(c43)NC[C@@H](C)N=C5N(C)C)n2)cn1`
### Response 0%

### Prompt Write down %Inh measured for item `CCc1nc(-c2cccc(C)c2)c(-c2ccncc2)s1`
### Response 0%

### Prompt Write down %Inh measured for item O=C(Nc1ccc2c(c1)OCO2)NC1CCN(c2ccnc(NCc3ccc(F)cc3)n2)CC1 [GSK1379859]
### Response 5%

### Prompt Write down %Inh measured for item O=C(NCc1cccs1)c1cc(C(=O)c2c(Cl)cccc2Cl)c[nH]1 [GW823670]
### Response 15%

### Prompt Write down %Inh measured for item `COc1ccc(-c2cc3c(C)nc(N)nc3n([C@H]3CC[C@H](OCCO)CC3)c2=O)cn1`
### Response 6%
